Data provenance is paper PMC8647499.

MEASUREMENT_NOTES: Metabolic stability assay in human liver microsomes
Assay type: in vitro ADME
TEST_CONTEXT: pH 7.4, 1 mg/mL protein
Description: Pretreatment of the 96-well ABgen-0765 reaction plates was the same as previously described above. […] The reactions were then initiated by the addition of 100 µL of HLM solution (at final protein concentration of 1 mg/mL), after which they were stopped at pre-determined incubation times of 0, 10, 15, 30, 45 and 60 min by adding 90 µL acetonitrile containing internal LC–MS–MS standards and shaking at 180 Hz. […] The intrinsic clearance (CLint) was determined by the equation: CLint […]
So I've got a bunch of compounds here, and I need their half-life values.
The reply should contain only the number, in min.

Req: Return the recorded half-life value; entry: C/C1=C\[C@H](C)CCC(=O)/C(C)=C/[C@H](C)C[C@@H](C)CC[C@@H]([C@@H](C)C(=O)O)OC(=O)[C@@H](C)C1 [Strasseriolide A, strasseriolide A]
Resp: 6.47

Req: Determine its reported half-life: C/C1=C\[C@H](C)CC[C@@H](O)/C(C)=C/[C@H](C)C[C@@H](C)CC[C@@H]([C@@H](C)C(=O)O)OC(=O)[C@@H](C)C1 [Strasseriolide B, strasseriolide B]
Resp: 8.7

Req: Specify reported half-life for the compound shown: C/C1=C\[C@H](C)C(=O)C[C@@H](O)/C(C)=C/[C@H](C)C[C@@H](C)CC[C@@H]([C@@H](C)C(=O)O)OC(=O)[C@@H](C)C1 [Strasseriolide C, strasseriolide C]
Resp: 15.9
